Catalogue of sequences with associated recombinant barcode read abundance (log10)
- Protocol: recombinant barcode read abundance after kanamycin selection (control-corrected) (log10(CPM+1)); higher = more efficient recombination; sequences stand for … in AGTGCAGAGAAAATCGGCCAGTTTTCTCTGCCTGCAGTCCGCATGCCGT…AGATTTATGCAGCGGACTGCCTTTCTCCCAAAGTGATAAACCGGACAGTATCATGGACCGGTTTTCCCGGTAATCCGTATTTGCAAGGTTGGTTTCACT; site = the 11-nt target
# print the numeric value only

# count of solved cases: 3
1) GTCTGATCTTGGGTTCTAACCTGTTGCCT (site GTCTCATCTAG): 0.113
2) GAGTGAACTTGGGTTCTAACCTGTTGCCA (site GTGTGTACTTG): 0.435
3) ACGCATCCTTGGGTTCTAACCTGTTGCCT (site ACGCATCCTAG): 0.0284

Enquiry: Find the recorded recombinant barcode read abundance (log10) belonging to TCGCGTGCTTGGGTTCTAACCTGTTGCGG (site CATTCCACTAG) and report it.
Return: 0.0782

Enquiry: Entry GAGTGGCCTTGGGTTCTAACCTGTTGCTT (site GAGTGGCCTAC) : reported recombinant barcode read abundance (log10) = ?
Return: 0.494

Enquiry: What value of recombinant barcode read abundance (log10) has been reported for the following sequence? TTAACTACTTGGGTTCTAACCTGTTGCTG (site TTAACTACTGA)
Return: 0.0228

Enquiry: Using the record for GGCTGATCTTGGGTTCTAACCTGTTGCCT (site TGCTGATCTAG) , report its recombinant barcode read abundance (log10).
Return: 0.216

Enquiry: Please report the recorded recombinant barcode read abundance (log10) for GTCGATCCTTGGGTTCTAACCTGTTGCCT (site GTCGATCCTAG) .
Return: 1.68

Enquiry: # recombinant barcode read abundance (log10) lookup, item TAGCCTTCTTGGGTTCTAACCTGTTGCTG (site TAGCCTTCTTA)
Return: 0.252

Enquiry: Which recombinant barcode read abundance (log10) reading was recorded for the sequence TGTAATACTTGGGTTCTAACCTGTTGCCT (site TGTAATTCTAG) ?
Return: 0.121

Enquiry: What does the record list as recombinant barcode read abundance (log10) for GTCAACCCTTGGGTTCTAACCTGTTGCGG (site GTAAACCCTCC) ?
Return: 0.886

Enquiry: Reported recombinant barcode read abundance (log10) for GTTTCGACTTGGGTTCTAACCTGTTGCCT (site GTTTCGTCTAG) : what is it?
Return: 0.173

Enquiry: Look up recombinant barcode read abundance (log10) for this sequence: GGTGCATCTTGGGTTCTAACCTGTTGCTT (site GGTGCATCTAA)
Return: 0.0847

Enquiry: Sample GAGAAGACTTGGGTTCTAACCTGTTGCGT (site GAGAAGACTAC) — what was its recombinant barcode read abundance (log10)?
Return: 2.56

Enquiry: Please give the measured recombinant barcode read abundance (log10) for this sequence: GTCCCCTCTTGGGTTCTAACCTGTTGCCT (site GTCACCTCTAG)
Return: 0.0601

Enquiry: Looking for the measured recombinant barcode read abundance (log10) of GCCTGAGCTTGGGTTCTAACCTGTTGCCT (site GCATGAGCTAG) , can you help?
Return: 0

Enquiry: Looking for the measured recombinant barcode read abundance (log10) of GCGCATCCTTGGGTTCTAACCTGTTGCCT (site GCGGATCCTAG) , can you help?
Return: 0.306

Enquiry: Param item = GAAGGAGCTTGGGTTCTAACCTGTTGCAG (site GAAGGAGCTCT) ; retrieve measured recombinant barcode read abundance (log10).
Return: 1.51

Enquiry: # recombinant barcode read abundance (log10) lookup, item AGGAGCCCTTGGGTTCTAACCTGTTGCTG (site AGGAGCCCTAA)
Return: 0.0752

Enquiry: Entry GGCCGAACTTGGGTTCTAACCTGTTGCCT (site CGCCGAACTAG) : reported recombinant barcode read abundance (log10) = ?
Return: 0.0639

Enquiry: Find the recorded recombinant barcode read abundance (log10) belonging to AGTTACACTTGGGTTCTAACCTGTTGCCT (site AGTTCCACTAG) and report it.
Return: 0.0139

###

- Protocol: recombinant barcode read abundance after kanamycin selection (control-corrected) (log10(CPM+1)); higher = more efficient recombination; sequences stand for … in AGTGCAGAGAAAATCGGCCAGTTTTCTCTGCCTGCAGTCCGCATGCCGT…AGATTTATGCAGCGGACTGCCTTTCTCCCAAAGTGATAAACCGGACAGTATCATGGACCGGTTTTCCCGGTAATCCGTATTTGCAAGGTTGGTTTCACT; site = the 11-nt target
Mark 1 for reported recombinant barcode read abundance (log10) of 0.3 or greater; mark -1 for anything smaller.

Enquiry: Decide: recombinant barcode read abundance (log10) of ACGGCCTCTTGGGTTCTAACCTGTTGCTT (site ACGGCATCTAG) >= 0.3?
Return: -1

Enquiry: Quick check: does CCTGACTCTTGGGTTCTAACCTGTTGCAT (site TAGTGGCCTTA) have recombinant barcode read abundance (log10) greater than or equal to 0.3?
Return: -1

###

- Protocol: recombinant UMI read abundance after kanamycin selection (control-corrected) (log10(CPM+1)); higher = more efficient recombination; extreme values may be limits of the assay; sequences stand for … in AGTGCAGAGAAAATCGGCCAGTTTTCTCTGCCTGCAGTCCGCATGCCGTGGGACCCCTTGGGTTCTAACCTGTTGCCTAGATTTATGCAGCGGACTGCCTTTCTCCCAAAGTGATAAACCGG…AGGTTGGTTTCACT; site = the 11-nt donor
Below, each entry is listed with its recorded recombinant UMI read abundance (log10).
Give only the figure.

# example entries with known answers
1. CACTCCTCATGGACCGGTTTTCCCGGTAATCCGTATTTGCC (site GACTCCTCTGG): 0
2. ACTTGTGCATGGACCGGTTTTCCCGGTAATCCGTATTTGGT (site ACTAGTGCTAC): 0.652

Enquiry: Consider the sequence shown here: CTCTATACATGGACCGGTTTTCCCGGTAATCCGTATTTGCT (site CTCTATACTAG) What is its recorded recombinant UMI read abundance (log10)?
Return: 2.08

Enquiry: # get_value(readout='recombinant UMI read abundance (log10)', item= GTATGCTCATGGACCGGTTTTCCCGGTAATCCGTATTTGTA (site GTATGCTCTTA) )
Return: 2.99

Enquiry: Could you share which recombinant UMI read abundance (log10) value was measured for GCTTGCGCATGGACCGGTTTTCCCGGTAATCCGTATTTGGT (site GCTTGCGCTAC) ?
Return: 0.514

###

As shown below, each of these sequences has a reported recombinant barcode read abundance (log10) value.
- Protocol: recombinant barcode read abundance after kanamycin selection (control-corrected) (log10(CPM+1)); higher = more efficient recombination; sequences stand for … in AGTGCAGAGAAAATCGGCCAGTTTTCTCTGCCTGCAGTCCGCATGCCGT…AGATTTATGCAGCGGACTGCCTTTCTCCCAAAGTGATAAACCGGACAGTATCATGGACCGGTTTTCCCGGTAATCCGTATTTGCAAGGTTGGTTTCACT; site = the 11-nt target
Output: the number by itself.

1) GGTTACCCTTGGGTTCTAACCTGTTGCGG (site GGTTACCCTCC): 2.08
2) GTTTGGCCTTGGGTTCTAACCTGTTGCTT (site GTTTGACCTAA): 0
3) TGCTGTCCTTGGGTTCTAACCTGTTGCTT (site CAGACGACTTG): 0.127
4) AAGCAATCTTGGGTTCTAACCTGTTGCCT (site AAGCACTCTAG): 0.159
5) CGCTGTCCTTGGGTTCTAACCTGTTGCTT (site CGCTGGCCTAA): 0.348
6) TGTCGGACTTGGGTTCTAACCTGTTGCAG (site TGTCGGACTGT): 0.127
7) AAGGGTTCTTGGGTTCTAACCTGTTGCCA (site AAGGGTTCTTG): 1.78
8) ACCGGTACTTGGGTTCTAACCTGTTGCCT (site ACCAGTACTAG): 0.408
9) TGTGCCTCTTGGGTTCTAACCTGTTGCCT (site TGTTCCTCTAG): 0.173

Read the next record carefully.
Enquiry: Report recombinant barcode read abundance (log10) for CACTTGTCTTGGGTTCTAACCTGTTGCCT (site CACTTGACTAG) please.
Return: 0.0529

###

- Protocol: recombinant UMI read abundance after kanamycin selection (control-corrected) (log10(CPM+1)); higher = more efficient recombination; extreme values may be limits of the assay; sequences stand for … in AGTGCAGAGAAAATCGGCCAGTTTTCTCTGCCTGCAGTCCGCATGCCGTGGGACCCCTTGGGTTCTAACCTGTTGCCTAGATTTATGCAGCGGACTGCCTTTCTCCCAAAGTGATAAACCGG…AGGTTGGTTTCACT; site = the 11-nt donor
Response key: Satisfied means recombinant UMI read abundance (log10) >= 0.2; Not satisfied means recombinant UMI read abundance (log10) < 0.2.

These solved cases illustrate the format of a correct answer.
1) TTTAACCCATGGACCGGTTTTCCCGGTAATCCGTATTTGAA (site TTTAACCCTTT): Not satisfied
2) GTAACGCCATGGACCGGTTTTCCCGGTAATCCGTATTTGTC (site GTAACGCCTGA): Not satisfied
3) TCAGATACATGGACCGGTTTTCCCGGTAATCCGTATTTGCG (site TCAGAAACTCG): Not satisfied
4) CCCATTTCATGGACCGGTTTTCCCGGTAATCCGTATTTGTC (site CCCATTTCTGA): Not satisfied
5) GGTTGGTCATGGACCGGTTTTCCCGGTAATCCGTATTTGCA (site GGTTGGTCTTG): Satisfied
6) CTCCACACATGGACCGGTTTTCCCGGTAATCCGTATTTGCT (site CTCTACACTAG): Satisfied

Enquiry: Check this sequence for recombinant UMI read abundance (log10) at or above 0.2: AGGTCAGCATGGACCGGTTTTCCCGGTAATCCGTATTTGGG (site AGCTCAGCTCC)
Return: Not satisfied

Enquiry: Assess whether reported recombinant UMI read abundance (log10) for TGAGCTACATGGACCGGTTTTCCCGGTAATCCGTATTTGCC (site TGAGCTACTGG) sits at 0.2 or higher.
Return: Satisfied

Enquiry: Is recombinant UMI read abundance (log10) for GTCGAATCATGGACCGGTTTTCCCGGTAATCCGTATTTGTT (site GTCGAATCTAA) at or above 0.2?
Return: Satisfied

Enquiry: Is it the case that TAGGAAACATGGACCGGTTTTCCCGGTAATCCGTATTTGCG (site TAGGAACCTCG) has recombinant UMI read abundance (log10) reaching or exceeding 0.2?
Return: Not satisfied

Enquiry: Dear colleague, could you confirm whether AGGGTCCCATGGACCGGTTTTCCCGGTAATCCGTATTTGTG (site AGGGTCCCTCA) has recombinant UMI read abundance (log10) at or above 0.2?
Return: Satisfied

Enquiry: hey, is recombinant UMI read abundance (log10) for this one >= 0.2? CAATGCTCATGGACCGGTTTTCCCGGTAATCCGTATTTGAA (site CAATTCTCTTT)
Return: Not satisfied
